- TEST SYSTEM: Glucose transporter (Leishmania mexicana) (UniProt O61059)
- EXPERIMENT NOTES: ST_JUDE_LEISH: Cytotoxicity at 2uM final concentration against transgenic Leishmania Mexicana promastigotes LmGT2 that are glucose transport deficient and complemented with the L. Mexicana glucose transporter 2. Activity is measured by DNA content using SYBR green in vitro
- Format: functional
EXPERIMENTAL ENDPOINT: inhibition (%)
Answer with a number only, understood to be in %.

Worked set:
input: Please report the recorded inhibition for C#CCOc1ccccc1CN1CCC(N2CCc3cc(NC(=O)c4cc(C)on4)ccc32)C1 (stereo unspecified) .
output: 4.74

input: Moving on to CS(=O)(=O)N(c1ccc(F)cc1)c1cc(C(=O)N[C@@H](Cc2ccccc2)[C@H](O)CNCc2cccc(C(F)(F)F)c2)cc(N2CCCC2=O)c1
output: -1.53

input: Moving on to COc1cc(C(=O)NC2CC(C)(C)NC(C)(C)C2)ccc1-c1cc2cc(Cl)c(Cl)cc2[nH]1
output: 2.02

input: Moving on to COc1cccc(C2CCN(CCCCNC(=O)c3ccc(NC(=O)c4ccc(Cl)cc4)cc3)CC2)c1
output: 3.37

Continuing:
input: Please report the recorded inhibition for O=S(=O)(Nc1ccc(CCN2CCC(N3CCCCC3)CC2)cc1)c1cccc(C(F)(F)F)c1 .
output: 5.56

input: Moving on to CC(C)(C)c1ccc(CNC(=O)/C=C/c2ccc(-c3nc4cc(C(C)(C)C)ccc4[nH]3)cc2)cc1
output: 4.02

input: Moving on to CC(C)c1ccc(O)cc1Nc1ccnc2ccc(C(F)(F)F)cc12
output: -0.66

input: Moving on to Oc1ccc(CCNc2nc(NCc3cccc(-c4cc(C(F)(F)F)ccc4Cl)c3)nc(N3CCNCC3)n2)cc1
output: 2.82

input: Moving on to NCc1ccc(Nc2nccc(Nc3ccc(-c4ccccc4)cc3)n2)cc1
output: 0.24

input: Moving on to C=CCOC(=O)N1CCC(CNCc2ccc(-c3cccc(-c4nc5cc(F)ccc5[nH]4)c3)cc2)C1 (stereo unspecified)
output: 3.88

input: Moving on to CS(=O)(=O)CCNCc1cccc(-c2ccc3c(Nc4cc(O)c(Cl)cc4F)ccnc3c2)c1
output: 2.65

input: Moving on to CCN(Cc1cccc2ccccc12)c1ccc2nc(N)nc(N)c2c1
output: 84

input: Moving on to COC(=O)CC[C@H](NC(=O)[C@H](C)NC(=O)OC(C)(C)C)C(=O)OC
output: 0.89

input: Moving on to CC(C)(CNCc1ccccc1)c1nc(-c2ccc(Cl)c(O)c2)c(-c2ccncc2)[nH]1
output: 3.53

input: Moving on to Clc1ccc(C=NN=c2cc[nH]c3ccccc23)cc1
output: 6.25

input: Moving on to CCC(=Cc1cccc([N+](=O)[O-])c1)C(=O)NCC1CCN(c2nc3cc(OC)c(OC)cc3c(=N)[nH]2)CC1
output: 6.83

input: Moving on to Nc1cc(C(F)(F)F)ccc1Cl
output: -2.26

###

- TEST SYSTEM: Hexose transporter 1 (Plasmodium falciparum) (UniProt O97467)
- EXPERIMENT NOTES: ST_JUDE_LEISH: Cytotoxicity at 2uM final concentration against transgenic Leishmania Mexicana promastigotes LmPfHT that are glucose transport deficient and complemented with the Plasmodium falciparum hexose transporter. Activity is measured by DNA content using SYBR green in vitro
- Format: functional
EXPERIMENTAL ENDPOINT: inhibition (%)
Answer with a number only, understood to be in %.

Worked set:
input: Could you share what inhibition was measured for CN1CCN(CCCN(Cc2ccc(-c3cccc(CNCc4ccc5c(c4)OCO5)c3)cc2)C(=O)CCC2CCCC2)CC1 , tested on Hexose transporter 1 (Plasmodium falciparum) (UniProt O97467)?
output: 2.56

input: Moving on to O=C(Nc1ccc(-c2cccc(-c3nc4cc(C(F)(F)F)ccc4[nH]3)c2)cc1)c1ccc(=O)[nH]n1
output: 2.75

Now consider a different compound.
input: Could you share what inhibition was measured for CNC(=O)c1cc(S(=O)(=O)N2CCN(c3ccccn3)CC2)c(C)s1 , tested on Hexose transporter 1 (Plasmodium falciparum) (UniProt O97467)?
output: -1.2
